Provide the reported TGI of each item.
- System: RPMI-8226 leukemia
- MEASUREMENT PROTOCOL: NCI tumour cell line growth inhibition, 48 h

Exercise: I would be grateful if you could share the reported TGI for "O=c1n(-c2ccccc2)c(=O)n2n1C1C=CC2CCCCCC1" .
Key: > 100 µM

Exercise: What would you report for "Cn1nc(N)nc1N=S(C)(C)=N" ?
Key: > 100 µM

Exercise: What would you report for "CC(C)(C)OC(=O)NCC(c1c[nH]c2ccc(Br)cc12)c1c[nH]c2ccc(Br)cc12" ?
Key: > 100 µM

Exercise: What would you report for "CN(C)CCCNC(=O)N/N=C\c1cccc2ccccc12" ?
Key: > 10 µM

Exercise: What would you report for "CC(=O)Nc1ccc(NNc2cc(=O)n(C)c(=O)[nH]2)cc1" ?
Key: 9.69 µM

Exercise: What would you report for "FC(F)(F)CNc1nccc(-c2cnn3ncccc23)n1" ?
Key: > 25 µM

Exercise: What would you report for Clc1ccc(C2=NOC(C3CCCCC3)C2)cc1 (stereo not drawn) ?
Key: > 100 µM

Exercise: What would you report for COC(=O)c1c2c(c3[nH]c4ccccc4c3c1C(=O)OC)C(=O)C1=C(C2=O)C2(Cl)C(Cl)C(Cl)C1(Cl)C2(Cl)Cl (stereo not drawn) ?
Key: 5.09 µM

Exercise: What would you report for "[N-]=[N+]=Nc1ccc2c(c1)Sc1ccccc1N2CCCCN1CCN(Cc2ccc(C(=O)c3ccccc3)cc2)CC1" ?
Key: > 100 µM

Exercise: What would you report for "CC1(C)C(=NN=C(N)N)C(C)(C)C1=NN=C(N)N" ?
Key: > 100 µM

Exercise: What would you report for O=S(=O)(c1ccccc1)C1CN2OC1(S(=O)(=O)c1ccccc1)CC21CCCCC1 (stereo not drawn) ?
Key: > 100 µM

Exercise: What would you report for "O=[N+]([O-])c1cccc(-c2ncnc(-c3cccc([N+](=O)[O-])c3)n2)c1" ?
Key: > 100 µM

Exercise: What would you report for "CCOC(=O)C1(C(=O)OCC)OC(=O)NC2=C1CCCC2" ?
Key: > 100 µM

Exercise: What would you report for "COc1ccc2[nH]c(C(O)(Cc3cccnc3)Cc3cccnc3)cc2c1" ?
Key: > 100 µM

Exercise: What would you report for CC(C)OP(=O)(c1ccccc1)c1ccc2c(c1)OCCOCCOCCOCCO2 (stereo not drawn) ?
Key: > 100 µM

Exercise: What would you report for CC1=C(O)C(=O)C2C(=O)C1C(C)C2c1ccc(C)cc1 (stereo not drawn) ?
Key: > 100 µM

Exercise: What would you report for "COc1ccc2c(=O)c(-c3cc4c(cc3OC)OCO4)coc2c1" ?
Key: > 100 µM

Exercise: What would you report for "Cc1nc2ccccc2c(=O)n1NC(=S)Nc1ccccc1" ?
Key: > 100 µM

Exercise: What would you report for CC1(C(=O)O)CCC(C(=O)O)C(C)(C)O1 (stereo not drawn) ?
Key: > 100 µM

Exercise: What would you report for "c1ccc(CSc2nnc3c4c5c(sc4nc(-c4cccnc4)n23)CCCCCC5)cc1" ?
Key: 12.5 µM

Exercise: What would you report for "Cc1cc(I)cc(CN(C)CCN2CCOCC2)c1O" ?
Key: > 100 µM

Exercise: What would you report for CC(=O)OC1Oc2ccc(C)cc2-c2oc(=O)c(-c3cc4ccccc4oc3=O)cc21 (stereo not drawn) ?
Key: 2.41 µM

Exercise: What would you report for COC(=O)C(CCC1CC(OC)N(C(=O)OCc2ccccc2)C1)N=Cc1ccccc1 (stereo not drawn) ?
Key: 91.7 µM

----------
Provide the reported TGI of each item.
- System: HCT-116 colon
- MEASUREMENT PROTOCOL: NCI tumour cell line growth inhibition, 48 h

Exercise: Notebook: pull reported TGI for HCT-116 colon, entry "CN(C)CCCNC(=O)N/N=C\c1cccc2ccccc12"
Key: > 10 µM

Exercise: What would you report for "CC(C)(C)N/N=C(\C(=O)Nc1ccc([N+](=O)[O-])cc1[N+](=O)[O-])c1nc2ccc([N+](=O)[O-])cc2[nH]c1=O" ?
Key: > 100 µM

Exercise: What would you report for "CN1CCN(CCCCN2c3ccccc3Sc3ccc(C(=O)c4ccccc4)cc32)CC1" ?
Key: 3.29 µM

Exercise: What would you report for OC1(c2ccccc2)CCCCCCCCC(O)(c2ccccc2)CCCCCCCC1 (stereo unspecified) ?
Key: > 100 µM

Exercise: What would you report for O=C1OC(=O)C2=C1C(c1cccs1)C=C(c1cccnc1)N2c1ccncc1 (stereo unspecified) ?
Key: 27.3 µM

Exercise: What would you report for COC(=O)c1c2c(c3[nH]c4ccccc4c3c1C(=O)OC)C(=O)C1=C(C2=O)C2(Cl)C(Cl)C(Cl)C1(Cl)C2(Cl)Cl (stereo unspecified) ?
Key: > 100 µM

Exercise: What would you report for "ClC1=C(Cl)C(Cl)=C(Cl)C1=Cc1ccccc1" ?
Key: 0.936 µM

Exercise: What would you report for O=C(NC1CCC(Br)CC1)C1CCCC(S(=O)(=O)NC2CCCCC2)C1 (stereo unspecified) ?
Key: 38 µM

Exercise: What would you report for "CCCCCCCCCCCC[C@H](O)[C@H]1CC[C@H]([C@H](O)CCCC[C@H](O)CCCCC[C@@H](O)CC2=C[C@H](C)OC2=O)O1" ?
Key: 22.7 µM

Exercise: What would you report for CC(C1=CC=C2[C@@H]3CCC4CC(N(C)C)CC[C@]4(C)C3CC[C@]12C)N(C)C=O (stereo partly specified) ?
Key: > 100 µM

Exercise: What would you report for "O=C(Nc1cccc(Cl)c1)Nc1cc2ncncc2cc1OCc1cccc(F)c1" ?
Key: > 100 µM

Exercise: What would you report for "COc1cc2oc(-c3ccc4c(c3)OCO4)c(OC)c(=O)c2c(OC)c1OC" ?
Key: > 100 µM

Exercise: What would you report for "COc1cc(NC(=O)c2ccc(C(F)(F)F)nc2Nc2ccc(Cl)cc2C)cc(OC)c1OC" ?
Key: 13.4 µM

Exercise: What would you report for "C=C1C/C(=C/C)C(=O)O[C@@H]2CCN3CC=C(COC(=O)[C@]1(C)O)[C@H]23" ?
Key: > 100 µM

Exercise: What would you report for O=C(O)CCC(NC(=O)c1ccc(Nc2nc3ccc(C(F)(F)F)cc3nc2-c2ccccc2)cc1)C(=O)O (stereo unspecified) ?
Key: > 100 µM

Exercise: What would you report for O=C1[C@H]2ON(c3ccccc3)C(c3ccc(Cl)cc3Cl)[C@H]2C(=O)N1c1ccc(Cc2ccc(N3C(=O)[C@@H]4ON(c5ccccc5)C(c5ccc(Cl)cc5Cl)[C@@H]4C3=O)cc2)cc1 (stereo partly specified) ?
Key: > 100 µM

Exercise: What would you report for COC(=O)C(=O)C(C(=O)OC)C(=O)C(=O)Nc1ccccc1C(N)=O (stereo unspecified) ?
Key: > 100 µM

Exercise: What would you report for CC(=O)OC1Oc2ccc(C)cc2-c2oc(=O)c(-c3cc4ccccc4oc3=O)cc21 (stereo unspecified) ?
Key: 8.62 µM

Exercise: What would you report for CC1SC(c2ccc(Cl)c(Cl)c2)N(NC(=O)C(O)c2ccccc2)C1=O (stereo unspecified) ?
Key: > 100 µM

Exercise: What would you report for "O=C(/C=C/c1cccc([N+](=O)[O-])c1)c1cccnc1" ?
Key: 33.3 µM

Exercise: What would you report for "COC(=O)c1ccc(NC(=O)c2cc3c(cc2Br)OCO3)o1" ?
Key: > 100 µM

Exercise: What would you report for O=C1CCC(C(=O)O)C2=C1CCCC2 (stereo unspecified) ?
Key: > 100 µM

Exercise: What would you report for "COCOc1cc(OC)ccc1C/C=N/O" ?
Key: > 100 µM

Exercise: What would you report for CC[C@]1(Cc2ccc(OC)c(OC)c2)[C@@H]2C[C@@H](C(=O)OC)ON2O[C@H](OC2CCCC2(c2ccccc2)c2ccccc2)[C@@H]1OC(C)=O (stereo partly specified) ?
Key: > 100 µM

Exercise: What would you report for "c1ccc(CSSSCc2ccccc2)cc1" ?
Key: 12.1 µM

Exercise: What would you report for Cc1c2cnccc2c(C)c2c1c1ccccc1n2CC1CO1 (stereo unspecified) ?
Key: 5.07 µM

Exercise: What would you report for C=CCCC1CCCCC/C1=N\N(C)C (stereo unspecified) ?
Key: > 100 µM

Exercise: What would you report for "O=c1c2ccccc2n2c(=S)[nH]nc2n1-c1ccccc1" ?
Key: > 100 µM

Exercise: What would you report for "CN(C)c1ccc(/C=N/N=C2\C(=O)Nc3c(Cl)cc(Cl)cc32)cc1" ?
Key: > 100 µM

Exercise: What would you report for "[N-]=[N+]=NCCCn1c2c(c3ccccc3c1=O)C(=O)c1cc(Br)ccc1-2" ?
Key: > 100 µM

Exercise: What would you report for CN1C(=O)N(C)C(N2CCCC2)c2c1nc1ccccn1c2=O (stereo unspecified) ?
Key: > 100 µM

Exercise: What would you report for "CC/C=C\C/C=C\C[C@H]1C/C=C2/C(=O)C=C[C@@H]2C/C=C\CCC(=O)O1" ?
Key: 1.47 µM

Exercise: What would you report for "COc1cc(NC(=O)c2ccc(C(F)(F)F)nc2Nc2cc(Cl)ccc2C)cc(OC)c1OC" ?
Key: 14.1 µM

Exercise: What would you report for "CC1(C)CC(=O)c2c(nc3c(ccc4ccccc43)c2-c2ccc(NC(=O)CCCC(=O)Nc3ccc(-c4c5c(nc6c4ccc4ccccc46)CC(C)(C)CC5=O)cc3)cc2)C1" ?
Key: > 100 µM

Exercise: What would you report for "Cc1cc(-c2c(Br)cc(C(=O)O)n2C)on1" ?
Key: > 100 µM

Exercise: What would you report for "COc1ccc2c(=O)c(-c3cc4c(cc3OC)OCO4)coc2c1" ?
Key: > 100 µM

Exercise: What would you report for O=C(O)CC1OCC=C2C[N+]3([O-])CCC45c6ccccc6NC4C1C2CC53 (stereo unspecified) ?
Key: > 100 µM

Exercise: What would you report for "N.N.NCCCCCCN.O=C([O-])CCl.O=C([O-])CCl.O=C([O-])CCl.O=C([O-])CCl.[Pt+4].[Pt+4]" ?
Key: > 50 µM

Exercise: What would you report for "COc1ccccc1-n1c(C)nc2ccccc2c1=O" ?
Key: > 100 µM

Exercise: What would you report for "ClCCN1CCOC1=C1C=CC=C1" ?
Key: > 100 µM

Exercise: What would you report for "COc1cc2c(cc1OCCCNC(=O)/C=C1/C[C@H]3C=Nc4cc(OCc5ccccc5)c(OC)cc4C(=O)N3C1)NC(=O)[C@@H]1CCCN1C2=O" ?
Key: > 100 µM
